- Method notes: Thermodynamic solubility of the compound at pH 6.5
- Format: physicochemical
- Condition description: buffer, read-out: Therm_solubility
Measured quantity: solubility thermodynamic (µM)
Respond with the bare value in µM.

Tell me solubility thermodynamic reported for `CC(C)C(=O)N1CCC(c2cn(C)c3ncc(NC(=O)c4cccc(C#N)c4)c(C(F)(F)F)c23)CC1`
1

----------
- Method notes: Oral bioavailability in Wistar Han rat at 3 mg/kg administered as crystalline solid by LC-MS/MS analysis
- Type: ADME, organism-based
- Condition description: in vivo
Measured quantity: bioavailability (%)
State the answer as a number, implicitly in %.

Tell me its bioavailability given `CC(C)C(=O)N1CCC(c2cn(C)c3ncc(NC(=O)c4cccc(C#N)c4)c(C(F)(F)F)c23)CC1` as the entry.
21
